B1: Steroid hormone receptor ERR2, residues 100 to 176; numbered along this chain, O95718 (parent)
chain: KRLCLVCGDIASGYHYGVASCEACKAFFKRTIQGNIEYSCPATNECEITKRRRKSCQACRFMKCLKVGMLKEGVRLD

# Variants of: B1
# methodNotes: abundance fitness (aPCA) (normalised: wild type 0, dead -1); higher = more abundant; growth selection in yeast, the domain comes from the species named
# particulars: Homo sapiens
readoutKind: abundance fitness
Please give the numeric answer without any surrounding text.

Use these answered entries as a reference point.
Problem: Which measured abundance fitness value corresponds to S12D ?
Result: 0.022

Problem: Similarly, M62T ?
Result: 0.106

Problem: Similarly, A19S ?
Result: 0.049

Problem: Similarly, C64V ?
Result: -0.836

Problem: Similarly, S12C ?
Result: 0.155

***
Problem: Which measured abundance fitness value corresponds to R51K ?
Result: -0.002

Problem: Similarly, R53F ?
Result: 0.065

Problem: Similarly, L3M ?
Result: -0.1

Problem: Similarly, S20N ?
Result: 0.131

Problem: Similarly, A23K ?
Result: -0.03

Problem: Similarly, L3Y ?
Result: 0.219

Problem: Similarly, I36Q ?
Result: -0.16

Problem: Similarly, A23G ?
Result: 0.321

Problem: Similarly, A11S ?
Result: 0.067

Problem: Similarly, C7L ?
Result: -1.17

Problem: Similarly, E22F ?
Result: -0.449

Problem: Similarly, C24Q ?
Result: -0.685

Problem: Similarly, R30P ?
Result: -0.989

Problem: Similarly, G34T ?
Result: -0.088

Problem: Similarly, K50Y ?
Result: -0.128

Problem: Similarly, R60I ?
Result: -0.23

Problem: Similarly, T49L ?
Result: -0.117

Problem: Similarly, K54I ?
Result: 0.073

Problem: Similarly, A42V ?
Result: -0.153

Problem: Similarly, L5M ?
Result: -0.139

Problem: Similarly, C40F ?
Result: -0.876

Problem: Similarly, A26W ?
Result: -0.075

Problem: Similarly, Y14W ?
Result: 0.032

Problem: Similarly, T31H ?
Result: -0.655

Problem: Similarly, N44H ?
Result: -0.314

Problem: Similarly, H15G ?
Result: -0.068

Problem: Similarly, S55T ?
Result: 0.277

Problem: Similarly, K54F ?
Result: -0.243

Problem: Similarly, R2M ?
Result: -0.074
